src = patent US9216978B2

- measurement_target: recombinant guanylate cyclase reporter cell line (Rattus norvegicus, UniProt P19686+P20595)
- Construct: expressed in transfected cells
- Sequence (P20595 whole entry): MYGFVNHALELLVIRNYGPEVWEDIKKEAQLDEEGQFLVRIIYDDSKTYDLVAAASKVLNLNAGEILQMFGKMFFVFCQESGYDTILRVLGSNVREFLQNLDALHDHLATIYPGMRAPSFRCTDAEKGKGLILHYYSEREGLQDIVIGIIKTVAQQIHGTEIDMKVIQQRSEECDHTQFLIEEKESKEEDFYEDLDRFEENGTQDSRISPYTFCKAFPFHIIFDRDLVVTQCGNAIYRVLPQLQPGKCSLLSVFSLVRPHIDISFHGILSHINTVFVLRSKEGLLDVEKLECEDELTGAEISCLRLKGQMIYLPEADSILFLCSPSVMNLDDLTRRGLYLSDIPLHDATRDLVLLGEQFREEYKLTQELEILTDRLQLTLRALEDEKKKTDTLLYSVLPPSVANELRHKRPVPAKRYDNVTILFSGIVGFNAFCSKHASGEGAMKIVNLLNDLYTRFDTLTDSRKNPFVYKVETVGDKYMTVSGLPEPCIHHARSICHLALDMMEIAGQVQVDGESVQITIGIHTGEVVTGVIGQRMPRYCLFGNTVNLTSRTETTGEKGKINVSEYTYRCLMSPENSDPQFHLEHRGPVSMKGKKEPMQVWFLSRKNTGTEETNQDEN
- Sequence (P19686 whole entry): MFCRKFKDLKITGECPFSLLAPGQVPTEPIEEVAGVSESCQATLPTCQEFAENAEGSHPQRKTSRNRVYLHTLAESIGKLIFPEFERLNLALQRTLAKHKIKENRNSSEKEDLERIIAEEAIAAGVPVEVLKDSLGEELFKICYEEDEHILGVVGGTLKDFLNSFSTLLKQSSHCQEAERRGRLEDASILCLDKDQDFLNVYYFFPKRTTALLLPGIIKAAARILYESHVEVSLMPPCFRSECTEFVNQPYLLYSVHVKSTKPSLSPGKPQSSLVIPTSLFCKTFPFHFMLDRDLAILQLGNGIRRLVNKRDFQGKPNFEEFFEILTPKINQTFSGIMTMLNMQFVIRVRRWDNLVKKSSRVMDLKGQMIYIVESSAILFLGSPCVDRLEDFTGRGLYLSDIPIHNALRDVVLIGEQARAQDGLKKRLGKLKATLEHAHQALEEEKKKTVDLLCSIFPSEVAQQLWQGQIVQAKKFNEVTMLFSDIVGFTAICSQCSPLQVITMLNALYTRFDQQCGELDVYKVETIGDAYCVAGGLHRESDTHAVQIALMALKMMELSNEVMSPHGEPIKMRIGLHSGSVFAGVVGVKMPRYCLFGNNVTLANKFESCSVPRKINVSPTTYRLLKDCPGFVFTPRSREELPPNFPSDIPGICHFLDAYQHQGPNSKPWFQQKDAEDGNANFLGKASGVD
- assay_name: Action on recombinant guanylate cyclase reporter cell line
- Format: cell-based
measured_property: MEC (minimal effective concentration) (µM)

> print(dat)
                                   compound                      measured.property  numeric.readout
1  CC1(C)C(=O)Nc2nc(-c3nn(Cc4cccc(F)c4F)c4ncccc34)nnc21  MEC (minimal effective concentration)             0.03
2  CC1(C)C(=O)Nc2nc(-c3nn(Cc4c(F)ccc(F)c4F)c4ncc(F)cc34)nnc21  MEC (minimal effective concentration)              0.1
3  O=C1CC(C(F)(F)F)c2cnc(-c3nn(Cc4ccccc4F)c4ncccc34)nc2N1 (centres unmarked)  MEC (minimal effective concentration)              0.3
4  O=C1Nc2nc(-c3nn(Cc4ccccc4F)c4ncccc34)ncc2C1=O  MEC (minimal effective concentration)              1.0
5  O=C(O)CC1(O)C(=O)Nc2nc(-c3nn(Cc4ccccc4F)c4ncccc34)ncc21 (centres unmarked)  MEC (minimal effective concentration)              1.0
6  O=C1Nc2nc(-c3nn(Cc4ccccc4F)c4ncccc34)ncc2C1(O)c1ccccc1 (centres unmarked)  MEC (minimal effective concentration)             0.03
7  CC1(C)C(=O)Nc2nc(-c3nn(Cc4cccc(F)c4F)c4ncccc34)ncc21  MEC (minimal effective concentration)             0.03
8  CC1(C)C(=O)Nc2nc(-c3nn(Cc4ccccc4F)c4ncccc34)nc(C(F)F)c21  MEC (minimal effective concentration)             0.03

----------
- measurement_target: recombinant guanylate cyclase reporter cell line (Rattus norvegicus, UniProt P19686+P20595)
- Construct: expressed in transfected cells
- assay_name: Action on recombinant guanylate cyclase reporter cell line
- Type: cell-based
Reported values of MEC (minimal effective concentration) for individual entries
measured_property: MEC (minimal effective concentration)

> print(dat)
                                    compound   result
 1  CC1(C)C(=O)Nc2nc(-c3nn(Cc4ccccc4F)c4ncccc34)ncc21 [Example 1]  0.01 µM
 2  CC(C)(C)OC(=O)CC1(O)C(=O)Nc2nc(-c3nn(Cc4ccccc4F)c4ncccc34)ncc21 (stereo not shown) [Example 24]   0.3 µM
 3  CC1(C)C(=O)Nc2nc(-c3nn(Cc4ccc(F)cc4F)c4ncc(F)cc34)nnc21 [Example 21]   0.1 µM
 4  COC(=O)C(C)(C)c1nnc(-c2nn(Cc3c(F)ccc(F)c3F)c3ncc(F)cc23)nc1O [Example 82A]   0.3 µM
 5  CC1(C)C(=O)Nc2nc(-c3nn(Cc4ccccc4F)c4ncccc34)nc(C3CC3)c21 [Example 12]   0.1 µM
 6  O=C1Nc2nc(-c3nn(Cc4cccc(F)c4F)c4ncccc34)ncc2C12CC2 [Example 10]  0.03 µM
 7  O=C1Nc2nc(-c3nn(Cc4ccccc4F)c4ncc(F)cc34)ncc2C12CC2 [Example 30]  0.03 µM
 8  O=C1Cc2cnc(-c3nn(Cc4ccccc4F)c4ncccc34)nc2N1 [Example 4]  0.03 µM
 9  CC1(C)C(=O)Nc2nc(-c3nn(Cc4ccccc4F)c4ncc(F)cc34)ncc21 [Example 2]  0.01 µM
10  CC1(O)C(=O)Nc2nc(-c3nn(Cc4ccccc4F)c4ncccc34)ncc21 (stereo not shown) [Example 17]   0.1 µM
11  O=C1Nc2nc(-c3nn(Cc4ccc(F)cc4F)c4ncccc34)ncc2C12CC2 [Example 8]  0.03 µM
12  O=C1Nc2nc(-c3nn(Cc4ccccc4F)c4ncccc34)ncc2C12CC2 [Example 5]  0.03 µM
13  O=C1Nc2nc(-c3nn(Cc4ccccc4F)c4ncccc34)ncc2C1(O)C(F)(F)F (stereo not shown) [Example 18]  0.03 µM
